# System: S180 tumor
# protocolDescription: Biodistribution in tumor-bearing mice
# Assay type: in vivo
# testConditions: 30 min, i.v., mice bearing S180 tumor, n=5, mean ± SD
Can you tell me Thyroid for the items I'm about to list?
Give bare numbers, in %ID/g.

Please give Thyroid for each item listed below.
1. O=C(Cc1ccc(C[N+]#[C][99Tc+]([C]#[N+]Cc2ccc(CC(=O)NC3C(O)OC(CO)C(O)C3O)cc2)([C]#[N+]Cc2ccc(CC(=O)NC3C(O)OC(CO)C(O)C3O)cc2)([C]#[N+]Cc2ccc(CC(=O)NC3C(O)OC(CO)C(O)C3O)cc2)([C]#[N+]Cc2ccc(CC(=O)NC3C(O)OC(CO)C(O)C3O)cc2)[C]#[N+]Cc2ccc(CC(=O)NC3C(O)OC(CO)C(O)C3O)cc2)cc1)NC1C(O)OC(CO)C(O)C1O (stereo not shown) [^99mTc-4-CNMBDG]
2. O=C(NC1C(O)OC(CO)C(O)C1O)c1ccc(CC[N+]#[C][99Tc+]([C]#[N+]CCc2ccc(C(=O)NC3C(O)OC(CO)C(O)C3O)cc2)([C]#[N+]CCc2ccc(C(=O)NC3C(O)OC(CO)C(O)C3O)cc2)([C]#[N+]CCc2ccc(C(=O)NC3C(O)OC(CO)C(O)C3O)cc2)([C]#[N+]CCc2ccc(C(=O)NC3C(O)OC(CO)C(O)C3O)cc2)[C]#[N+]CCc2ccc(C(=O)NC3C(O)OC(CO)C(O)C3O)cc2)cc1 (stereo not shown) [^99mTc-4-CNPeDG]
3. O=C(NC1C(O)OC(CO)C(O)C1O)c1cccc([N+]#[C][99Tc+]([C]#[N+]c2cccc(C(=O)NC3C(O)OC(CO)C(O)C3O)c2)([C]#[N+]c2cccc(C(=O)NC3C(O)OC(CO)C(O)C3O)c2)([C]#[N+]c2cccc(C(=O)NC3C(O)OC(CO)C(O)C3O)c2)([C]#[N+]c2cccc(C(=O)NC3C(O)OC(CO)C(O)C3O)c2)[C]#[N+]c2cccc(C(=O)NC3C(O)OC(CO)C(O)C3O)c2)c1 (stereo not shown) [^99mTc-3-CNBzDG]
4. O=C(NC1C(O)OC(CO)C(O)C1O)c1cccc(C[N+]#[C][99Tc+]([C]#[N+]Cc2cccc(C(=O)NC3C(O)OC(CO)C(O)C3O)c2)([C]#[N+]Cc2cccc(C(=O)NC3C(O)OC(CO)C(O)C3O)c2)([C]#[N+]Cc2cccc(C(=O)NC3C(O)OC(CO)C(O)C3O)c2)([C]#[N+]Cc2cccc(C(=O)NC3C(O)OC(CO)C(O)C3O)c2)[C]#[N+]Cc2cccc(C(=O)NC3C(O)OC(CO)C(O)C3O)c2)c1 (stereo not shown) [^99mTc-3-CNPEDG]

stdout:
1: 0.07; 2: 0.02; 3: 0.03; 4: 0.04
